Values compiled from paper PMC12087695.

- assay.summary: Plasma pharmacokinetics of cocktail index drugs and their metabolites, five-phase crossover trial
- run.conditions: human, plasma, oral, AUC0-12h, geometric mean (geometric CV), phase V: gemfibrozil 600 mg b.i.d. 3 days pretreatment + full cocktail
metric.name: AUC(0-t) (ng·h/mL)
One number for each entry, in ng·h/mL.

Given the entry Cn1c(=O)[nH]c2ncn(C)c2c1=O , report its measured AUC(0-t).
3360

====

- assay.summary: clinical
- run.conditions: human, in vivo, t1/2, geometric mean (geometric CV), phase II: Geneva cocktail
Would you mind telling me the reported half-life of each entry?
Numbers only, in h.

CC(C(=O)O)c1ccc(-c2ccc(O)cc2)c(F)c1 (stereo not shown) [4’-OH-flurbiprofen, 4′‐hydroxyflurbiprofen]    3.44
CC(C(=O)O)c1ccc(-c2ccccc2)c(F)c1 (stereo not shown)    4.82
CN1CC[C@@]23CCCC[C@@H]2[C@@H]1Cc1ccc(O)cc13    2.5
Cc1ncc2n1-c1ccc(Cl)cc1C(c1ccccc1F)=NC2    2.29
CC(NC(C)(C)C)C(=O)c1cccc(Cl)c1 (stereo not shown)    7.89
COc1ccc2c(c1)[C@]13CCCC[C@@H]1[C@H](C2)N(C)CC3    4.24

Here's the next entry for you.
Consider the compound shown here: COc1ccc2[nH]c([S+]([O-])Cc3ncc(C)c(OC)c3C)nc2c1 (stereo not shown) What is its recorded half-life?
0.76

====

- assay.summary: clinical
- run.conditions: human, in vivo, AUC0-23h, geometric mean (geometric CV), phase V: gemfibrozil 600 mg b.i.d. 3 days pretreatment + full cocktail
Each entry gets label 0 if its AUC(0-t) stays under 20 ng·h/mL, and label 1 if its AUC(0-t) is 20 ng·h/mL or above.

Cc1ncc2n1-c1ccc(Cl)cc1C(c1ccccc1F)=NC2    label 0

Textbook exercise: given the entry COc1ccc2c(c1)[C@]13CCCC[C@@H]1[C@H](C2)N(C)CC3 , state whether its AUC(0-t) is greater than or equal to 20 ng·h/mL.
label 0

Try CCOc1cc(CC(=O)N[C@@H](CC(C)C)c2ccccc2N2CCCCC2)ccc1C(=O)O [Repaglinide, repaglinide] next.
label 0

Try the compound CN1CC[C@@]23CCCC[C@@H]2[C@@H]1Cc1ccc(O)cc13
label 0

How about CC(C(=O)O)c1ccc(-c2ccccc2)c(F)c1 (centres unmarked) ?
label 1

====

- assay.summary: Plasma pharmacokinetics of pretreatment drugs clopidogrel, gemfibrozil and their metabolites
- Type: in vivo
- run.conditions: human, after clopidogrel 300 mg single oral dose (phase IV)
metric.name: Cmax (ng/mL)
Numbers only, in ng/mL.

Using the record for COC(=O)[C@H](c1ccccc1Cl)N1CCc2sccc2C1 , report its Cmax.
3.75

====

Answer each item with its documented AUC(0-inf).
- assay.summary: clinical
- run.conditions: human, in vivo, AUC0-∞, geometric mean (geometric CV), phase II: Geneva cocktail
Numbers only, in ng·h/mL.

Solved cases (6 shown):
Cc1ncc2n1-c1ccc(Cl)cc1C(c1ccccc1F)=NC2    9.82
COc1ccc2c(c1)[C@]13CCCC[C@@H]1[C@H](C2)N(C)CC3    5.58
CC(C(=O)O)c1ccc(-c2ccccc2)c(F)c1 (stereo not shown)    5910
COc1ccc2[nH]c([S+]([O-])Cc3ncc(C)c(OC)c3C)nc2c1 (stereo not shown)    177
CC(NC(C)(C)C)C(=O)c1cccc(Cl)c1 (stereo not shown)    84.7
CN1CC[C@@]23CCCC[C@@H]2[C@@H]1Cc1ccc(O)cc13    8.35

Now look at this one.
What AUC(0-inf) value was documented for this compound, CC(C(=O)O)c1ccc(-c2ccc(O)cc2)c(F)c1 (stereo not shown) [4’-OH-flurbiprofen, 4′‐hydroxyflurbiprofen] ?
263

====

- assay.summary: clinical
- run.conditions: human, in vivo, Cmax, geometric mean (geometric CV), phase IV: clopidogrel 300 mg pretreatment + full cocktail
Could you please report measured Cmax for the items listed next?
Numbers only, in ng/mL.

Take a look at these entries with their results.
COc1ccc2[nH]c([S+]([O-])Cc3ncc(C)c(OC)c3C)nc2c1 (stereo not drawn)    167
Cc1ncc2n1-c1ccc(Cl)cc1C(c1ccccc1F)=NC2    4.33
CN1CC[C@@]23CCCC[C@@H]2[C@@H]1Cc1ccc(O)cc13    2.05
CC(C(=O)O)c1ccc(-c2ccccc2)c(F)c1 (stereo not drawn)    1180
CCOc1cc(CC(=O)N[C@@H](CC(C)C)c2ccccc2N2CCCCC2)ccc1C(=O)O [Repaglinide, repaglinide]    1.69

Tell me the measured Cmax of COc1ccc2c(c1)[C@]13CCCC[C@@H]1[C@H](C2)N(C)CC3 , please.
0.858

====

- assay.summary: Plasma pharmacokinetics of cocktail index drugs and their metabolites, five-phase crossover trial
- run.conditions: human, plasma, oral, Tmax, median (range), phase IV: clopidogrel 300 mg pretreatment + full cocktail
metric.name: Tmax (h)
Give bare numbers, in h.

COc1ccc2nc(S(=O)(=O)Cc3ncc(C)c(OC)c3C)[nH]c2c1 [Omeprazole sulfone, omeprazole sulfone]    1.5

Moving on to another molecule below.
For Cn1c(=O)[nH]c2ncn(C)c2c1=O [Paraxanthine, paraxanthine] , what is its reported Tmax?
3

====

I'd appreciate it if you could supply AUC(0-inf) values for the items below.
- assay.summary: Plasma pharmacokinetics of cocktail index drugs and their metabolites, five-phase crossover trial
- run.conditions: human, plasma, oral, AUC0-∞, geometric mean (geometric CV), phase IV: clopidogrel 300 mg pretreatment + full cocktail
Express the reported value numerically, then name its unit.

COc1ccc2nc(S(=O)(=O)Cc3ncc(C)c(OC)c3C)[nH]c2c1 [Omeprazole sulfone, omeprazole sulfone]    0.154 µg·h/mL

Pending compound:
Which AUC(0-inf) value belongs to Cn1c(=O)[nH]c2ncn(C)c2c1=O [Paraxanthine, paraxanthine] ?
8.93 µg·h/mL

====

- assay.summary: clinical
- run.conditions: human, in vivo, AUC0-23h, geometric mean (geometric CV), phase IV: clopidogrel 300 mg pretreatment + full cocktail
metric.name: AUC(0-t)
Provide a numeric answer, followed by its unit.

CC(C(=O)O)c1ccc(-c2ccccc2)c(F)c1 (stereo not drawn)    5720 ng·h/mL
COc1ccc2[nH]c([S+]([O-])Cc3ncc(C)c(OC)c3C)nc2c1 (stereo not drawn)    214 ng·h/mL
CCOc1cc(CC(=O)N[C@@H](CC(C)C)c2ccccc2N2CCCCC2)ccc1C(=O)O [Repaglinide, repaglinide]    5.55 ng·h/mL
COc1ccc2c(c1)[C@]13CCCC[C@@H]1[C@H](C2)N(C)CC3    6.01 ng·h/mL

Please report AUC(0-t) for every entry that follows.
1. CN1CC[C@@]23CCCC[C@@H]2[C@@H]1Cc1ccc(O)cc13
2. Cc1ncc2n1-c1ccc(Cl)cc1C(c1ccccc1F)=NC2

["9.66 ng·h/mL", "11.3 ng·h/mL"]

====

- assay.summary: clinical
- run.conditions: human, in vivo, t1/2, geometric mean (geometric CV), phase IV: clopidogrel 300 mg pretreatment + full cocktail
Give measured half-life for each item. Keep answers brief.

# annotated cases, reported half-life shown
COc1ccc2c(c1)[C@]13CCCC[C@@H]1[C@H](C2)N(C)CC3    277 min
CN1CC[C@@]23CCCC[C@@H]2[C@@H]1Cc1ccc(O)cc13    161 min
Cc1ncc2n1-c1ccc(Cl)cc1C(c1ccccc1F)=NC2    144 min
CCOc1cc(CC(=O)N[C@@H](CC(C)C)c2ccccc2N2CCCCC2)ccc1C(=O)O [Repaglinide, repaglinide]    167 min

--- query ---
# get_value(readout='half-life', item= CC(C(=O)O)c1ccc(-c2ccccc2)c(F)c1 (centres unmarked) )
261 min

====

- assay.summary: clinical
- run.conditions: human, in vivo, Cmax, geometric mean (geometric CV), phase II: Geneva cocktail
metric.name: Cmax (ng/mL)
Numbers only, in ng/mL.

Examples with answers:
CC(C(=O)O)c1ccc(-c2ccc(O)cc2)c(F)c1 (centres unmarked) [4’-OH-flurbiprofen, 4′‐hydroxyflurbiprofen]    46.4
CN1CC[C@@]23CCCC[C@@H]2[C@@H]1Cc1ccc(O)cc13 [Dextrorphan, dextrorphan]    1.82
CC(NC(C)(C)C)C(=O)c1cccc(Cl)c1 (centres unmarked) [Bupropion, bupropion]    20
CC(C(=O)O)c1ccc(-c2ccccc2)c(F)c1 (centres unmarked) [Flurbiprofen, flurbiprofen]    1090

Now let's try a different one.
Entry under review: COc1ccc2c(c1)[C@]13CCCC[C@@H]1[C@H](C2)N(C)CC3 [Dextromethorphan, dextromethorphan] . Reported Cmax?
0.745

====

- assay.summary: Plasma pharmacokinetics of cocktail index drugs and their metabolites, five-phase crossover trial;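 note: parameters derived from plasma drug levels quantified by LC–MS with internal standards after acetonitrile protein precipitation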
- run.conditions: human, plasma, oral, AUC0-∞, geometric mean (geometric CV), phase V: gemfibrozil 600 mg b.i.d. 3 days pretreatment + full cocktail
metric.name: AUC(0-inf) (ng·h/mL)
One number for each entry, in ng·h/mL.

Below are 2 molecules. Give each one its AUC(0-inf).
1. COc1ccc2nc(S(=O)(=O)Cc3ncc(C)c(OC)c3C)[nH]c2c1 [Omeprazole sulfone, omeprazole sulfone]
2. Cn1c(=O)[nH]c2ncn(C)c2c1=O [Paraxanthine, paraxanthine]

1: 122; 2: 9160
